In this section, each of the variants is paired with its reported protein stability index.
B1: RHOBTB1 (parent)
chain: TFGDHHKDRRFAYGRSDVVVLCFS

- Variants of: B1
- EXPERIMENT_SUMMARY: protein stability index of a GFP-peptide fusion (GPS, HEK-293T) (PSI 1-6); higher = more stable;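 note: lentivirally expressed fusions sorted by FACS into six bins by GFP to DsRed ratio, PSI derived from sequencing read proportions per bin multiplied by bin number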
- CONDITION_INFO: c terminus: a fixed tail appended
# output: bare number, no unit

Worked set:
SEQUENCE_DATA	protein stability index
TFGDGHKDRRFAYGRSDVVVLCFS [H5G]	1.21
TFGDHHKDRRFAYGRSDVVVLCTS [F23T]	1.68
TFGDHHKDRRFAYGRSDVVVLCNS [F23N]	3.08
TFGDHHYDRRFAYGRSDVVVLCFS [K7Y]	3.88
TFGDHHKDRRFAYGRSDMVVLCFS [V18M]	2.06

Consider the record given below.
Looking up TFGDHHKDRRAAYGRSDVVVLCFS [F11A] , I found its protein stability index recorded as 1.69

Recorded values, source the supplement of paper PMC10567573.
